Recorded values, source ChEMBL document CHEMBL2311317.

Recorded IC50 values (Matrix protein 2 (Influenza A virus (A/Udorn/307/1972(H3N2)), UniProt P0DOF8, V27A)) are given below.

- compound structure string: "NC1CC[Si]2(CCCC2)CC1"
  system under test: "Matrix protein 2 (Influenza A virus (A/Udorn/307/1972(H3N2)), UniProt P0DOF8, V27A)"
  IC50: "96.3 µM"

Pending molecule:
Test system Matrix protein 2 (Influenza A virus (A/Udorn/307/1972(H3N2)), UniProt P0DOF8, V27A); read-out IC50; what value for `NC1CCC2(CCCC2)CC1` ?
319 µM
